- ASSAY METHOD TEXT: yeast display, Sf9 membrane polyspecificity reagent, FACS + sequencing; frameworks hold sequencing errors

POLYMER SEQUENCE	polyreactivity (PSR sort gate)
QVQLVESGGGLLQAGGSLRLSCAASGFIFADYMGWNRQAPGKERELVASISSTGSSTYADSVKGRFTISRDNPKNTVYLQMNSLKPEDTAVSYCAATGVWYSWYEYASEYDYWGLGTQVTVSS	high polyreactivity
QVQLVESGGGLVHAGGSLRLSCAASGRTFKFYAMGWYRQAPGKERELVAAISGSGGTTRYADSVKGRFTISRDNAKNTVYLQMNSLKPEDTAVYYCAARPPGLALEYGYWGQGTQVTVSS	high polyreactivity
QVQLVESGGGLVQAGGSLRLSCAASGSIFSYYAMGWYRQAPGKERELVAAISGSGGSTYYADSVKGRFTISRDNAKNTVYLQMNSLKPDDNAVYSCAARYYAWGRRRTWDDYWGQGTQVTVSS	high polyreactivity
